Can you tell me kon for the items I'm about to list?
measurement_target: T1, AFP158/HLA-A*02:01 complex (human)
T1 construct: flowed as analyte in SPR
protocol_text: SPR, crude scFv captured, pMHC analyte;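 also: complex injected at several concentrations over the chip, association phase then running buffer for dissociation, KD derived from on- and off-rates computed from both curves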
Respond with the bare value in M⁻¹ s⁻¹.

Reported kon ( AS170036 VL1VH1-57K98I108A (scFv, also called 70-AS170036 VL1VH1-57K98I108A) scFv: QSALTQPRSVSGSPGQSVTISCAGTSSDVGSENYVSWYQQHPGKAPKLMIYQVNKRASGVPDRFSGSKSGNTASLTISGLQAEDEADYYCASYRSSDINIVFGGGTKLTVLGGGGSGGGGSGGGGSEVQLVESGGGLVQPGGSLRLSCAASGFTFSSYAMSWVRQAPGKGLEWVSTINSGTGKPYYADSVKGRFTISRDNSKNTLYLQMNSLRAEDTAVYYCAKNFFDGSWFLAPPAMDYWGQGTLVTVSSHHHHHH ) = 190000

Query AS170036 VL1VH1-56N98F108A (scFv, also called 49-AS170036 VL1VH1-56N98F108A) scFv: QSALTQPRSVSGSPGQSVTISCAGTSSDVGSENYVSWYQQHPGKAPKLMIYQVNKRASGVPDRFSGSKSGNTASLTISGLQAEDEADYYCASYRSSDFNIVFGGGTKLTVLGGGGSGGGGSGGGGSEVQLVESGGGLVQPGGSLRLSCAASGFTFSSYAMSWVRQAPGKGLEWVSTINSGTNSPYYADSVKGRFTISRDNSKNTLYLQMNSLRAEDTAVYYCAKNFFDGSWFLAPPAMDYWGQGTLVTVSSHHHHHH yields kon of 270000

Input AS170036 VL1VH1-56N98F108D (scFv, also called 50-AS170036 VL1VH1-56N98F108D) scFv: QSALTQPRSVSGSPGQSVTISCAGTSSDVGSENYVSWYQQHPGKAPKLMIYQVNKRASGVPDRFSGSKSGNTASLTISGLQAEDEADYYCASYRSSDFNIVFGGGTKLTVLGGGGSGGGGSGGGGSEVQLVESGGGLVQPGGSLRLSCAASGFTFSSYAMSWVRQAPGKGLEWVSTINSGTNSPYYADSVKGRFTISRDNSKNTLYLQMNSLRAEDTAVYYCAKNFFDGSWFLDPPAMDYWGQGTLVTVSSHHHHHH . Output kon: 310000
